Tested on: MOLT-4 leukemia
ASSAY EXPLANATION: NCI-60 one-dose screen, 48 h (100 = growth as untreated, 0 = no growth, -100 = all killed)
CONDITION NOTES: 10 µM unless noted
About 83,000 compounds went through this panel and 20% of them were active in at least one assay; those are over-represented in the sample as a whole.
EXPERIMENTAL ENDPOINT: growth (%)
The response must be a number in % with no trailing unit.

Qu. Would you kindly share the measured growth for CCN(CC)CCCC(C)Nc1cc(-c2cccc(OC(F)(F)F)c2)nc2ccc(N3CCCC3)cc12 (centres undefined) ?
Ans. 2.34

Qu. Look up growth: COc1ccccc1-c1c(-c2ccc(Cl)cc2)c2cc3c(cc2[nH]c1=O)OCCO3
Ans. 3.15

Qu. Bench note: what growth did CNC(=O)Nc1ccc(-c2nc(N3CCOCC3)nc3c2cnn3C2CCOCC2)cc1 show?
Ans. 11.9

Qu. May I ask what growth has been recorded for O=C(NNc1nc(Cl)nc(N2CCN(C(c3ccccc3)c3ccccc3)CC2)n1)c1ccccc1 ?
Ans. -39.2

---

Test system: HCT-116 colon
ASSAY EXPLANATION: NCI-60 one-dose screen, 48 h (100 = growth as untreated, 0 = no growth, -100 = all killed)
CONDITION NOTES: 10 µM unless noted
This is part of a sample that, as a whole, favours compounds with a hit. Of some 83,000 tested, about 20% had one in any assay.
Please go through the items and note down their growth.
Report the value in % with no unit label.

Qu. Please provide the recorded growth for CCCCCCCCCCCCCCCCCCOc1ccccc1N , tested on HCT-116 colon.
Ans. 44

Qu. Query the reported growth for HCT-116 colon; item: O=C(Nc1nc2ccc(S(=O)(=O)Nc3ccc(C4(C(F)(F)F)CC4)cc3)cc2[nH]1)c1cnccn1
Ans. 26.2

Qu. Item: CCCCN(CCCC)CCc1c(C)cc(C)c(CCN(CCCC)CCCC)c1O Test system: HCT-116 colon Read-out: growth Value: ?
Ans. 6.6

---

Test system: COLO 205 colon
ASSAY EXPLANATION: NCI-60 one-dose screen, 48 h
CONDITION NOTES: 10 µM unless noted
About 83,000 compounds went through this panel and 20% of them were active in at least one assay; those are over-represented in the sample as a whole. Active and inactive are the calls of the source. Rule for the calls: active = growth percent below 10; inactive = the rest.
Your answer must be one of the following: Y = active, N = inactive

Qu. Hi team, can someone confirm the assay call for COc1cc(NCCN(CC(C)C)C2CCCC2)c2ncccc2c1 ?
Ans. N

Qu. Given CCSc1ccc2c(c1)N(CCCN1CCN(C)CC1)c1ccccc1S2 , state the outcome it received in this test.
Ans. Y

Qu. Kindly provide the recorded test outcome for the following compound: CN1C(=O)N(C)C2NC(N/N=C/c3ccccc3)=NC21 (configuration not stated)
Ans. N

Qu. Short answer needed: outcome of this test for Cc1ccc2[nH]c(=O)cc(-n3nncc3COc3ccc(C=O)cc3)c2c1 ?
Ans. N

Qu. Per the assay record, what outcome was assigned to COc1ccc(C(=O)/C=C/c2cn(Cc3ccc(Cl)cc3)c3ccccc23)cc1 ?
Ans. N

Qu. GET /call?item= CN(C)c1ccc(-c2c(C#N)c(N)n3nc(N)c(C#N)c3c2C#N)cc1 returns the recorded outcome of this test.
Ans. N

Qu. Status in this test for CNC(=O)NCC1OC(n2cnc3c(NC(=O)Nc4ccccc4)ncnc32)C(O[Si](C)(C)C(C)(C)C)C1O[Si](C)(C)C(C)(C)C (configuration not stated) ?
Ans. Y

Qu. Hi team, can someone confirm the assay call for COc1ccccc1/C=N/NC1=NC2C(N1)N(C)C(=O)N2C (configuration not stated) ?
Ans. N

Qu. Call for entry CCn1cc(C2NC(=O)c3ccccc3N2)c2cccc(C)c21 (configuration not stated) :
Ans. Y

Qu. Outcome? O=C(Cc1ccc(/C=C/C(=O)c2ncc[nH]2)cc1)Nc1ccc(C(F)(F)F)cc1
Ans. N

Qu. How did this test come out for O=C1Nc2c(ccc(Cl)c2Cl)/C1=C/c1ccc(F)cc1 ?
Ans. N

Qu. Per the records of this test, what outcome belongs to N#Cc1c(NC(=O)c2cccc(Br)c2)sc2c1CCCC2 ?
Ans. N

---

System: KM12 colon
ASSAY EXPLANATION: NCI-60 one-dose screen, 48 h
CONDITION NOTES: 10 µM unless noted
The panel holds about 83,000 compounds, 20% with a hit somewhere; the sample as a whole holds those more often. Calls of active or inactive are those of the source. Rule for the calls: active = growth percent below 10; inactive = the rest.
Outcome (select one): YES = active, NO = inactive

Qu. In this assay, the call recorded for COc1ccc(C2CC(c3cccc(Nc4ccncc4)c3)=NN2c2cc(Cl)cc(Cl)c2)cc1 (stereo not drawn) was what?
Ans. YES

Qu. Given COc1cc(Nc2cc(O)c3c(=O)cc(-c4ccccc4)oc3c2)cc(OC)c1 , state the outcome it received in this test.
Ans. NO

Qu. Hey, what did the test say about C1=C2CNCC3=Cc4ccc5ccccc5c4OC23Oc2c1ccc1ccccc21 ?
Ans. NO

---

Tested on: NCI-H522 lung
ASSAY EXPLANATION: NCI-60 one-dose screen, 48 h
CONDITION NOTES: 10 µM unless noted
Compounds without any hit were thinned out: in the full panel of roughly 83,000, 20% have a hit. Calls of active or inactive are those of the source. Rule for the calls: active = growth percent below 10; inactive = the rest.
Choose one outcome from this list and give only that: YES (active), NO (inactive)

Qu. Please state the recorded outcome for this compound: CN1CCN(CCCNc2nccc(-c3c(-c4ccc(F)c(O)c4)nc4sccn34)n2)S1(=O)=O
Ans. NO

Qu. Could you please tell me the result logged for Cc1ccc(Nc2cc(=S)nc(N)[nH]2)cc1C in this assay?
Ans. NO

Qu. What outcome does the record of this test show for N#C/C(=C\c1ccc(Br)cc1)n1nnc2cccc(F)c21 ?
Ans. NO

Qu. // return assay outcome for Nc1cc(N)c2cccnc2c1O
Ans. NO

Qu. Name the outcome recorded for CN1CCN(Cc2ccc(NC(=O)c3cncc(C#Cc4cnccc4C(F)(F)F)c3)cc2C(F)(F)F)CC1 in the assay.
Ans. NO

Qu. Test call for this compound, please: COc1ccc(C(=O)c2cc3c(N)c(C(=O)Nc4cccc(Cl)c4C)sc3nc2C)cc1
Ans. YES

Qu. # outcome recorded in this test, key = NC(=O)c1ncn(C2OC(CO)C(O)C2O)n1 (configuration not stated)
Ans. NO

---

Tested on: MDA-MB-231 breast
ASSAY EXPLANATION: NCI-60 one-dose screen, 48 h (100 = growth as untreated, 0 = no growth, -100 = all killed)
CONDITION NOTES: 10 µM unless noted
This is part of a sample that, as a whole, favours compounds with a hit. Of some 83,000 tested, about 20% had one in any assay.
So basically every entry gets a class from its growth, ranges being low group (below 20%), middle group (20% to below 80%), high group (80% or more)

Qu. Just checking, what class would you give C[C@@H]1CN(Cc2ccc(/C=C/c3n[nH]c4ccc5nc(-c6cn[nH]c6C(F)(F)F)c6c(c5c34)CCCC6)cc2)C[C@H](C)O1 here?
Ans. low group

Qu. Please let me know in which category the item CCOC(=O)c1cnc2c(cnn2CC)c1NN=C(C)C belongs.
Ans. high group

Qu. Please classify: CCc1c(Nc2ccc(C)cc2)nc(N)[nH]c1=O
Ans. high group

Qu. # bin lookup: classify O=C(Nc1ccccc1)Oc1ccccc1-c1ccccc1 by its growth
Ans. high group

Qu. Tag the class for CCCCCN1C=C/C(=C\C(=O)N(C)c2ccc(Br)cc2)c2ccccc21
Ans. high group

Qu. Into which category would you place CC(=O)OCC(=O)C1(O)C(C)CC2C3C=C(C)C4=Cc5c(cnn5-c5ccccc5)CC4(C)C3C(O)CC21C (centres undefined) ?
Ans. low group

Qu. Given COc1ccc(C2=C(c3ccccc3)c3ccc(OC(C)=O)cc3OC2(C)C)cc1 , name the class its growth places it in.
Ans. middle group

Qu. Just checking, what class would you give O=C(Nc1cccc(Cl)c1)c1cc(Cl)ccc1O here?
Ans. low group

Qu. Band for the recorded growth of O=C(/C=C/c1ccc[nH]1)c1ccc(-n2ccc(C(F)(F)F)n2)cc1 ?
Ans. middle group

Qu. # bin lookup: classify CCn1cc(C2NC(=O)c3ccccc3N2)c2cccc(C)c21 (centres undefined) by its growth
Ans. low group

Qu. Sort CC(=O)CCSc1ccc(OC(C)=O)cc1 into one of the categories.
Ans. high group

Qu. Classify this compound: Clc1ccc(N2N=C(c3cccc(Nc4ccncc4)c3)CC2c2ccc3c(c2)OCO3)cc1 (centres undefined)
Ans. middle group

Qu. Hi, small favor: classify O=[N+]([O-])c1cccc(-c2nc(-c3ccc(Cl)cc3Cl)cn2-c2ccccc2)c1 by its growth when you get a moment.
Ans. low group

Qu. Using the reported growth, which band applies to CCCCCCC/C=C/[C@H]1O[C@]2(O)C(=O)C=C3C[C@@H](O[C@@H]4O[C@H](CO)[C@@H](O)C(O)[C@@H]4O)C[C@@H]3[C@H]2C=C1C (some centres undefined) ?
Ans. low group

Qu. // return the class label for CCN1C(=O)N(CC)C2NC(SC)=NC21 (centres undefined)
Ans. high group

Qu. Form: Item = COc1ccc2c(c1)OC13Oc4cc(OC)ccc4C=C1CCCC3=C2 ; Class = ?
Ans. middle group
